These measurements were taken from patent US20240025919A1.

Molecular target: KRAS WT (Homo sapiens (Human), UniProt P01116)
Sequence (P01116-2 other isoform, or with tags, fused parts or gaps): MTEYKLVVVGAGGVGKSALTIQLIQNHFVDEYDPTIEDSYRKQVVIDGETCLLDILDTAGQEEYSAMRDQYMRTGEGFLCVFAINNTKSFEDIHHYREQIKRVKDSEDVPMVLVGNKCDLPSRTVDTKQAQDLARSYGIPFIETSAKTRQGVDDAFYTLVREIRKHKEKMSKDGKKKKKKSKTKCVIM
Assay: KRAS WT Biochemical Assay, BODIPY-GDP Exchange TR-FRET (Example 502; 0.06 nM KRAS WT, 15 nM GDP, 300 nM SOS1, 120-minute incubation)
Settings: read-out: KRas HTRF IC50
Listed below: IC50 values for each entry.
Respond numerically; units are µM and should not be typed.

Some solved cases for reference:
sample_smiles	measured_target	measurement_label	unit_of_measurement	numeric_result
Cc1c(F)c(N)c(F)c(-c2nc3c4c(nc(OC[C@@]56CCCN5C[C@H](F)C6)nc4c2F)N2C[C@H]4CC[C@H](N4)[C@H]2[C@H](C)O3)c1CC(F)F	KRAS WT (Homo sapiens (Human), UniProt P01116)	IC50	µM	0.108
Cc1c(F)c(N)cc(-c2nc3c4c(nc(OC[C@H](F)CN5CC6(COC6)C5)nc4c2F)N2C[C@H]4CC[C@H](N4)[C@H]2[C@H](C)O3)c1C(F)(F)F	KRAS WT (Homo sapiens (Human), UniProt P01116)	IC50	µM	0.0995

Name the recorded IC50 for Cc1cc(N)c(F)c(-c2nc3c4c(nc(OC[C@@H]5CC[C@H]6COCCN65)nc4c2F)N2C[C@H]4CC[C@H](N4)[C@H]2[C@H](C)O3)c1C1CC1 .
0.553

----------
Molecular target: KRAS WT (Homo sapiens (Human), UniProt P01116)
Assay: KRAS WT Biochemical Assay, BODIPY-GDP Exchange TR-FRET (Example 501; 3 nM KRAS WT, 3 nM SOS1, 60-minute incubation)
Settings: read-out: KRas HTRF IC50
pIC50: −log10 of the molar value.
Threshold rule: pIC50 greater than or equal to 7 is 1.0; below that, 0.0.

compound	classification
C[C@@H]1Oc2nc(-c3cc(N)nc(C(F)F)c3C(F)(F)F)c(F)c3nc(OC[C@@]45CCCN4C[C@H](F)C5)nc(c23)N2C[C@H]3CC[C@H](N3)[C@@H]12	1.0
Cc1nc(N)cc(-c2nc3c4c(nc(OC[C@@]56CCN5CC(F)(F)C6)nc4c2F)N2C[C@H]4CC[C@H](N4)[C@H]2[C@H](C(F)(F)F)O3)c1C(F)(F)F (single isomer, unassigned) [252 (isomer 1)]	1.0
Cc1nc(N)cc(-c2nc3c4c(nc(OC[C@H]5N(C)C[C@@]56CC6(F)F)nc4c2F)N2C[C@H]4CC[C@H](N4)[C@H]2[C@H](C(F)(F)F)O3)c1C(F)(F)F (single isomer, unassigned) [262 (isomer 2)]	0.0
Cc1c(F)ccc(-c2nc3c4c(nc(OC[C@@]56CCCN5C[C@H](F)C6)nc4c2F)N2C[C@H]4CC[C@H](N4)[C@H]2[C@H](C)O3)c1C(F)(F)F	0.0

Lab note: next compound to report on.
// inclusive: pIC50 at least 7? input: Cc1nc(N)cc(-c2nc3c4c(nc(OCC56CCN5CC(F)(F)C6)nc4c2F)N2C[C@H]4CC[C@H](N4)[C@H]2[C@H](C)O3)c1C(F)(F)F (some centres unmarked)
1.0

----------
Let's look at some compounds and their measured IC50.
Biological target: KRAS G12D (Homo sapiens (Human), UniProt P01116, G12D)
Sequence (P01116-2 other isoform, or with tags, fused parts or gaps G12D): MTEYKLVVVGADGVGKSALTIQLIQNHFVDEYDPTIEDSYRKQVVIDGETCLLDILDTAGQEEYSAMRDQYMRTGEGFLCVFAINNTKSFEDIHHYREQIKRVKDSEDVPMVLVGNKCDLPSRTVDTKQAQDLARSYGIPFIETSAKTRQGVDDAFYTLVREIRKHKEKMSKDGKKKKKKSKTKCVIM
Assay: KRAS G12D LoEnz Biochemical Assay, BODIPY-GDP Exchange TR-FRET (SOS1-mediated nucleotide exchange)
Conditions: read-out: KRas (G12D) GDP HTRF IC50
Please reply with the bare figure in nM and do not write the unit itself.

Which IC50 is reported with KRAS G12D (Homo sapiens (Human), UniProt P01116, G12D) for this entry: Cc1c(F)c(N)cc(-c2nc3c4c(nc(OC[C@@]56CCCN5CC5(CC5(F)F)C6)nc4c2F)N2C[C@H]4CC[C@H](N4)[C@H]2[C@@H](C)O3)c1C(F)(F)F (stereo partly shown) ?
0.15

Reported IC50 for KRAS G12D (Homo sapiens (Human), UniProt P01116, G12D), given Cc1c(F)c(N)cc(-c2nc3c4c(nc(OC[C@@]56CCCN5CC5(CC5(F)F)C6)nc4c2F)N2C[C@H]4CC[C@H](N4)[C@H]2[C@H](C)O3)c1C(F)(F)F (stereo partly shown) ?
0.083

KRAS G12D (Homo sapiens (Human), UniProt P01116, G12D) / IC50 / Cc1c(F)c(N)cc(-c2nc3c4c(nc(OCC5(CN6CC6(C)C)CC5)nc4c2F)N2C[C@H]4CC[C@H](N4)[C@H]2[C@H](C)O3)c1C(F)(F)F (stereo partly shown) : value?
0.16

I'm curious: which IC50 was measured for Cc1c(F)c(N)c(F)c(-c2nc3c4c(nc(OC[C@@]56CCCN5C[C@H](F)C6)nc4c2F)N2C[C@H]4CC[C@H](N4)[C@H]2[C@H](C)O3)c1I tested on KRAS G12D (Homo sapiens (Human), UniProt P01116, G12D)?
0.385

Form: Entry = Cc1cc(N)cc(-c2nc3c4c(nc(OC[C@@]56CCCN5C[C@H](F)C6)nc4c2F)N2C[C@H]4CC[C@H](N4)[C@H]2[C@H](C)O3)c1C(F)(F)F | System = KRAS G12D (Homo sapiens (Human), UniProt P01116, G12D) | IC50 = ____
0.138

Item: Cc1c(F)c(N)cc(-c2nc3c4c(nc(OC[C@@]56CCCN5C[C@H](F)C6)nc4c2F)N2CCN[C@H](C)[C@@H]2[C@@H](C)O3)c1C(F)(F)F (single isomer, unassigned) [234 (isomer 4)] Test system: KRAS G12D (Homo sapiens (Human), UniProt P01116, G12D) Read-out: IC50 Value: ?
589

Find IC50 (KRAS G12D (Homo sapiens (Human), UniProt P01116, G12D)) for the entry Cc1c(F)c(N)cc(-c2nc3c4c(nc(OC[C@@]56CCCN5C[C@H](F)C6)nc4c2F)N2C[C@H]4CC[C@H](N4)[C@@H]2[C@H](C)O3)c1C(F)(F)F (single isomer, unassigned) [237 (isomer 1)]
1910

Param readout= IC50; system= KRAS G12D (Homo sapiens (Human), UniProt P01116, G12D); entry= C[C@@H]1Oc2nc(-c3cncc4cccc(Cl)c34)c(F)c3nc(OC[C@@]45CCCN4C[C@H](F)C5)nc(c23)N2C[C@H]3CC[C@H](N3)[C@@H]12 ; returns value.
13.9

Which IC50 is reported with KRAS G12D (Homo sapiens (Human), UniProt P01116, G12D) for this entry: Cc1c(F)c(N)cc(-c2nc3c4c(nc(OCC56CCN5CC(F)(F)C6)nc4c2F)N2C[C@H]4CC[C@H](N4)[C@H]2[C@H](C(F)(F)F)O3)c1C(F)(F)F (single isomer, unassigned) [263 (diast. 2)] ?
0.53

IC50 of Cc1c(F)c(N)cc(-c2nc3c4c(nc(OC[C@@]56CCCN5C[C@H](F)C6)nc4c2F)N2C[C@H]4CC[C@H](N4)[C@H]2[C@H](C(F)(F)F)O3)c1C(F)(F)F on KRAS G12D (Homo sapiens (Human), UniProt P01116, G12D)?
0.21
